Molecular target: Substance-P receptor (Homo sapiens, UniProt P25103)
Sequence (P25103 whole entry): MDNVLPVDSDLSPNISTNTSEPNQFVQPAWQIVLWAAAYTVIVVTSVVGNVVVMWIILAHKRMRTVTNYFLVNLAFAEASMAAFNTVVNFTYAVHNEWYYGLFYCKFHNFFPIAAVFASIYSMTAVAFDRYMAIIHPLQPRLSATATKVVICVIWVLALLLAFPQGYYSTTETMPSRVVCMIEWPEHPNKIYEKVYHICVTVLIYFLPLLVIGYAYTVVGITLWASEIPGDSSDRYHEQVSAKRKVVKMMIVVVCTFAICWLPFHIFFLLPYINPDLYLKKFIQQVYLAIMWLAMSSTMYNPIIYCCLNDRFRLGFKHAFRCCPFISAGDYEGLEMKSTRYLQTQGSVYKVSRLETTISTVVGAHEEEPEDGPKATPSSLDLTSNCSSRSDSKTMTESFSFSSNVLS
Measurement Type: pKi
In simple prose, pKi is minus the logarithm base ten of a concentration in moles per litre.

Query block: // returns reported pKi for input COc1ccccc1CN[C@H]1C2CCNC1(c1ccccc1)CC=C2C (some centres not stated)
Result block: 9.20
